# ASSAY_SYSTEM: M-phase inducer phosphatase 2 (Homo sapiens) + Cyclin-dependent kinase 2 (Homo sapiens) + Cyclin-A2 (Homo sapiens) (UniProt P30305+P24941+P20248)
# METHOD_DESCRIPTION: primary biochemical HTRF screen for inhibition of M-phase inducer phosphatase 2 binding to cyclin-dependent kinase 2/cyclin A (AID 1259370)
# TEST_PARAMETERS: HTRF CDC25B-CDK2/CyclinA binding, anti-His/anti-Flag; active compounds read high
The campaign covered roughly 94,000 compounds. About 680 (0.72%) were called active. The list comes from a sample in which actives are over-represented; it also holds close analogues and randomly drawn compounds.
# reported z-score; entries follow
No unit in the answer, please; the number alone is enough.

Past entries and their recorded results:
COMPOUND | z-score
O=C(C(=O)N1CCc2ccccc2C1)c1c[nH]c2ccccc12 | 10.4
CCOC(=O)c1c(N)sc2c1CCN(C(C)=O)C2 | -2.08

Q) Supply recorded z-score for Cc1cc(C)n(CCc2nc3c4ccccc4nc(SCC(=O)NCc4ccco4)n3n2)n1 here.
A) -1.06
